Target: Ataxin-2 (Homo sapiens)
Assay: qHTS for Inhibitors of ATXN expression.
Format: functional
Among all 400,000 compounds or so, about 2,100 (0.53%) were called active. About 14% were inconclusive and are not listed. What follows is part of a selection rich in actives, with near analogues and random picks from the rest.
measured_attribute: Potency

INSERT INTO results (smiles_representation, obs_value) VALUES
  ('O=C1OCc2ccc(NS(=O)(=O)c3ccc(C(F)(F)F)cc3)cc21', 'inactive'),
  ('COC(=O)C1CCN(C(=O)c2cc3c(=O)n4cccc(C)c4nc3n2Cc2ccccc2)CC1', 'inactive'),
  ('C[C@H]1CN([C@@H](C)CO)C(=O)Cc2cc(NC(=O)CCC(F)(F)F)ccc2O[C@H]1CN(C)Cc1ccc(C(F)(F)F)cc1', '39.8 µM (active)'),
  ('Nc1cccc2c1C(=O)N(C(=O)c1ccc(Cl)c(S(=O)(=O)N3CCCCCC3)c1)C2=O', 'inactive'),
  ('CCOC(=O)c1nnn(-c2nonc2N)c1-c1ccc(Br)cc1', 'inactive'),
  ('CC(C)OC(=O)CSc1nnc(COc2ccc([N+](=O)[O-])cc2)n1C', 'inactive'),
  ('COc1ccccc1CNc1nc(NCc2ccc(C(C)C)cc2)c2sccc2n1', '31.6 µM (active)');

Now consider the entry below.
Quick note, Potency for `COC(=O)[C@@]1(Cc2ccc(F)cc2)[C@H]2c3cc(C(=O)N4CCCC4)n(Cc4ccccc4)c3C[C@H]2CN1C(=O)c1ccccc1` landed at 25.1 µM (active)

---

Molecular target: Ataxin-2 (Homo sapiens) (UniProt Q99700)
Sequence (Q99700 whole entry): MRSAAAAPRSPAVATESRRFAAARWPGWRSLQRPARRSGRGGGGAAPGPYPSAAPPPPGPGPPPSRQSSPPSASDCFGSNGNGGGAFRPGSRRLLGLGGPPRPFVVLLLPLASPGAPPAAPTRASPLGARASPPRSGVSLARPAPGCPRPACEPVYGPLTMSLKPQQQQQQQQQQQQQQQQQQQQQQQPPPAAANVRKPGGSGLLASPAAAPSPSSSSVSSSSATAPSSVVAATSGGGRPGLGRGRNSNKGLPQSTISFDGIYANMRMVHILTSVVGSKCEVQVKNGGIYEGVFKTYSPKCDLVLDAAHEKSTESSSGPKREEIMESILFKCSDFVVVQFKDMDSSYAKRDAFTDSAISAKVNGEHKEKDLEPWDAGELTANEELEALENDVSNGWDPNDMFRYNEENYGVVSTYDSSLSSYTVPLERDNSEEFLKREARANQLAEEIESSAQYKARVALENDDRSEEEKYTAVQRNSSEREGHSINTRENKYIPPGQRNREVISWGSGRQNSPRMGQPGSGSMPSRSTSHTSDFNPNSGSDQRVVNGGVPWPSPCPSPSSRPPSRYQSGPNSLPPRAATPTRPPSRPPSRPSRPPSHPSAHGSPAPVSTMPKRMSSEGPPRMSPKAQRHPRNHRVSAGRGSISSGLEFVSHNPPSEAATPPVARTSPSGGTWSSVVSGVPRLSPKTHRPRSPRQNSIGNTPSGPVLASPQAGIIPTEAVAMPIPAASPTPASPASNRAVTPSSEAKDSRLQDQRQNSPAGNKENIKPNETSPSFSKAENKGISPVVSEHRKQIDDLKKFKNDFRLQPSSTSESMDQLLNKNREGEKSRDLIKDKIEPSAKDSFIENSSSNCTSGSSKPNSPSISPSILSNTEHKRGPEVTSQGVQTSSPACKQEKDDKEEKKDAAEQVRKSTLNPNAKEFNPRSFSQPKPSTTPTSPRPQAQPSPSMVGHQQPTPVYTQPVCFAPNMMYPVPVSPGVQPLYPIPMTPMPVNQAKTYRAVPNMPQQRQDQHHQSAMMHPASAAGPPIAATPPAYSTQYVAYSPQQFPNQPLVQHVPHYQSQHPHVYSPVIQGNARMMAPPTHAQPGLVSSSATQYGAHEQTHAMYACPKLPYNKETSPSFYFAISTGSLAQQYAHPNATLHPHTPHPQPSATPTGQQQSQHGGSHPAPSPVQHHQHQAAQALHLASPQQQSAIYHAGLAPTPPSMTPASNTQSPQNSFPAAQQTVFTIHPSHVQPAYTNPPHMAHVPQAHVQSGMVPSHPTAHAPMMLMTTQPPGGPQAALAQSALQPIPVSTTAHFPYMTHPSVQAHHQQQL
Assay: qHTS for Inhibitors of ATXN expression.
Assay type: functional
Screen size: about 400,000 compounds; about 2,100 (0.53%) were called active. Roughly 14% stayed inconclusive and do not appear here. The rule behind the calls is not given here. The sample as a whole holds a higher share of actives than the screen did.
Bench note: report the call from active, inactive

INSERT INTO measurements (compound, classification) VALUES
  ('COc1ccc(CCC(C)NCc2ccc(F)cc2)cc1 (configuration not stated)', 'inactive'),
  ('CCN(CC)S(=O)(=O)c1ccc2c(c1)N(CC(=O)NCCCN1CCN(c3cc(Cl)ccc3C)CC1)C(=O)CO2', 'active'),
  ('Cc1ccc(NC(=O)C2CC(=O)N(C(C)C)C2)cc1C (configuration not stated)', 'inactive'),
  ('Cc1c(-c2ccc(Cl)cc2)c(=O)oc2c(CN3CCN(CCO)CC3)c(O)ccc12', 'inactive'),
  ('COc1ccc(S(=O)(=O)Nc2ccc(-n3cccc3)cc2)cc1', 'inactive');

I'd appreciate the recorded outcome for `Cc1nn2c(nc(N3CCCCC3)c3ccccc32)c1C=O` from this test.
inactive

# outcome recorded in this test, key = CNC(=O)c1ccc(NC(=O)CC2SC(N3CCCC3)=NC2=O)cc1 (configuration not stated)
inactive

---

Molecular target: Ataxin-2 (Homo sapiens) (UniProt Q99700)
Assay: qHTS for Inhibitors of ATXN expression.
Type: functional
In all, about 400,000 compounds went through this assay and about 2,100 (0.53%) were called active. Inconclusive results (about 14%) are left out. How the calls were made is not given here. Shown is part of a subset that was picked to be rich in actives.
Please answer using one outcome listed in active, inactive

INSERT INTO measurements (compound, classification) VALUES
  ('Cc1ccsc1C(=O)N1CCN(c2ccccn2)CC1', 'inactive'),
  ('CNC(=O)C(=O)Nc1cc2c3c(c1)CCC(=O)N3CCC2', 'inactive'),
  ('O=C(CN(c1ccc(Br)cc1)S(=O)(=O)c1ccc(Cl)c([N+](=O)[O-])c1)NCC1CCCO1 (stereo unspecified)', 'active');

Outcome logged for `O=C(O)/C=C/c1cn(-c2ccccc2)nc1-c1cccs1` in this assay:
inactive

Answer briefly: the call reported for `CCN(CC(=O)NCc1cccs1)S(=O)(=O)c1ccc([N+](=O)[O-])cc1` in this assay.
inactive

Name the outcome recorded for `O=S(=O)(CCSc1ccccn1)c1nc2ccccc2s1` in the assay.
active

What did the test return for `O=C(NN/C=C1\C(=O)N(Cc2ccccc2)C(=O)c2ccccc21)c1cccnc1` ?
inactive

Which outcome was assigned to `COc1ccc(-c2cc(C(=O)Oc3ccccc3)c3cc(C)ccc3n2)cc1` in this test?
active
